Numbers sourced from patent US20230391727A1.

System: A. baumannii ATCC 17978
RUN DESCRIPTION: Checkerboard assay with novobiocin (FIGS. 2, 3, 5, 6)
Format: cell-based, Acinetobacter baumannii
READOUT TYPE: synergy with novobiocin as compared to pentamidine with novobiocin

{"MOLECULE": "N=C(N)c1ccc(CC[C@H]2CCC[C@@H](CCc3ccc(C(=N)N)cc3)C2)cc1", "ASSAYED TARGET": "A. baumannii ATCC 17978", "RESULT VALUE": "superior synergy"}
{"MOLECULE": "N=C(N)c1cccc(CCCCCCCc2cccc(C(=N)N)c2)c1 [Compound 1, 3,3′-(heptane-1,7-diyl)dibenzimidamide]", "ASSAYED TARGET": "A. baumannii ATCC 17978", "RESULT VALUE": "superior synergy"}
{"MOLECULE": "N=C(N)c1cccc(CCCCCCCc2cccc(C3CCNC3)c2)c1 (stereo not shown)", "ASSAYED TARGET": "A. baumannii ATCC 17978", "RESULT VALUE": "superior synergy"}
